// data source = patent US8273774B2

Here the recorded IC50 is given for each entry.
subject of test: recombinant Human Phosphodiesterase B2 (PDE4B2) (Homo sapiens)
assay text: Human Phosphodiesterase B2 Radiometric Assay
Type: biochemical
run parameters: 0.1 μg/mL recombinant PDE4B2; preincubated at 30 C for 30 min; [3H]cyclic AMP 8 nM, stopped after 20 min; yttrium silicate SPA beads; read-out: PDE4B2 pIC50 (converted)
Numeric answer only, unit nM assumed.

Cc1cc(C(=O)N[C@H]2CC[C@@H](NC(=O)c3cc(F)cnc3Oc3cccc(-c4cccc(CCCN5C[C@@H](C)N[C@@H](C)C5)c4)c3)CC2)nn1C [Example 126] : 0.0501
O=C(N[C@H]1CC[C@@H](NC(=O)c2cccc3cccnc23)CC1)c1cc(F)cnc1Oc1cccc(-c2ccc(CCCNCCCO)cc2)c1 [Example 161] : 0.0126

Then this compound:
Per the records, this compound ( C[C@@H]1CN(Cc2cc(-c3cccc(Oc4ncc(F)cc4C(=O)N[C@H]4CC[C@@H](NC(=O)c5cn6c(n5)CCCC6)CC4)c3)ccc2O)C[C@H](C)N1 [Example 91] ) has IC50 equal to 0.251

----------
subject of test: recombinant Human Phosphodiesterase B2 (PDE4B2) (Homo sapiens, UniProt Q07343)
Sequence (Q07343 1-564 isoform Q07343-2): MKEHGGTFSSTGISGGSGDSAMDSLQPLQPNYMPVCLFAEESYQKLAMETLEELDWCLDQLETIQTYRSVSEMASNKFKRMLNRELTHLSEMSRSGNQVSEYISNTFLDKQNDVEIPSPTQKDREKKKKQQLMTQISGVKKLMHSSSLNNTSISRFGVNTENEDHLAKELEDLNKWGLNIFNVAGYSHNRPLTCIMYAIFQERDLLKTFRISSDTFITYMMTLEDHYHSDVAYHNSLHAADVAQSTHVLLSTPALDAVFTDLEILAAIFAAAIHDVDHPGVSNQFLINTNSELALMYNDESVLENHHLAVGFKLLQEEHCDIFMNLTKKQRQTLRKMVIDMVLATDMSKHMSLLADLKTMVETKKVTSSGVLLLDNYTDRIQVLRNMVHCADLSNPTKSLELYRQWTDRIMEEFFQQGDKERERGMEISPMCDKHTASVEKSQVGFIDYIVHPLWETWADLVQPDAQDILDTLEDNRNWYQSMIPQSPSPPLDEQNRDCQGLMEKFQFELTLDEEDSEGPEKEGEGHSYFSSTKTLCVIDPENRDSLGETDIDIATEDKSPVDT
assay text: Human Phosphodiesterase B2 Radiometric Assay
Assay type: biochemical
run parameters: 0.1 μg/mL recombinant PDE4B2; preincubated at 30 C for 30 min; [3H]cyclic AMP 8 nM, stopped after 20 min; yttrium silicate SPA beads; read-out: PDE4B2 pIC50 (converted)
metric name: IC50

Cc1cc(C(=O)N[C@H]2CC[C@@H](NC(=O)c3cc(F)cnc3Oc3cccc(-c4ccc(CCCN5CCN(C)CC5)cc4)c3)CC2)nn1C : 0.0398 nM
Cc1csc(C(=O)N[C@H]2CC[C@@H](NC(=O)c3cc(F)cnc3Oc3cccc(-c4ccc(CN5C[C@@H](C)N[C@@H](C)C5)cc4CN4CCOC[C@@H]4C)c3)CC2)n1 : 0.0316 nM
Cc1nc(C(=O)N[C@H]2CC[C@@H](NC(=O)c3cc(F)cnc3Oc3cccc(-c4ccc(CN5C[C@@H](C)N[C@@H](C)C5)cc4)c3)CC2)cs1 : 0.0631 nM
Cc1nc(C(=O)N[C@H]2CC[C@@H](NC(=O)c3cc(F)cnc3Oc3cccc(-c4cccc(CCCN5CCNCC5)c4)c3)CC2)cs1 : 0.126 nM

Per the records, this molecule ( Cc1ccc(O)c(C(=O)N[C@H]2CC[C@@H](NC(=O)c3cc(F)cnc3Oc3cccc(-c4ccc(O)cc4CN4CCCOCC4)c3)CC2)c1 ) has IC50 equal to 0.0316 nM

Per the records, this molecule ( O=C(N[C@H]1CC[C@@H](NC(=O)c2cc(F)cnc2Oc2cccc(-c3ccc(CCCN4CCNCC4)cc3)c2)CC1)c1cc(C2CC2)n[nH]1 ) has IC50 equal to 0.0398 nM

Per the records, this molecule ( Cc1csc(C(=O)N[C@H]2CC[C@@H](NC(=O)c3cc(F)cnc3Oc3cccc(-c4ccc(CCCN5CCNCC5)cc4)c3)CC2)n1 ) has IC50 equal to 0.0398 nM

Per the records, this molecule ( C[C@@H]1CN(CCCc2cccc(-c3cccc(Oc4ncc(F)cc4C(=O)N[C@H]4CC[C@@H](NC(=O)c5cc6n(n5)CCC6)CC4)c3)c2)C[C@H](C)N1 ) has IC50 equal to 0.0631 nM

Per the records, this molecule ( Cc1nc(C(=O)N[C@H]2CC[C@@H](NC(=O)c3cc(F)cnc3Oc3cccc(-c4ccc(CN5CCOCC5)cc4O)c3)CC2)cs1 ) has IC50 equal to 0.0251 nM

Per the records, this molecule ( Cc1cc(C(=O)N[C@H]2CC[C@@H](NC(=O)c3cc(F)cnc3Oc3cccc(-c4cccc(CCN5CCNCC5)c4)c3)CC2)nn1C ) has IC50 equal to 0.0398 nM

Per the records, this molecule ( Cc1cccc2nc(C(=O)N[C@H]3CC[C@@H](NC(=O)c4cc(F)cnc4Oc4cccc(-c5ccc(CN(C)CCO)cc5)c4)CC3)cn12 ) has IC50 equal to 0.1 nM
